test: Pharmacokinetic study in mice; assay type: in vivo; conditions: mouse, po; male mice, p.o. (10 mg/kg), plasma
Assign Tmax to each entry below.
Numbers only, in h.

Solved entries (count: 3):
Give a short answer stating reported Tmax for Cn1c(=O)n(C2CCC(=O)NC2=O)c2cccc(N3CCN(C(=O)CN4CCC5(CC4)Cc4cc(NC(=O)c6cnn7cccnc67)c(N6CCC(CO)CC6)cc4O5)CC3)c21 (stereo not shown) .
2

Please look at this molecule and report its Tmax: Cn1c(=O)n(C2CCC(=O)NC2=O)c2cccc(C#CCO[C@H]3CC[C@@H](CN4CCC5(CC4)Cc4cc(NC(=O)c6cnn7cccnc67)c(N6CCC(CO)CC6)cc4O5)CC3)c21 (relative stereo)
1

Indicate the recorded Tmax value for this molecule: Cn1c(=O)n(C2CCC(=O)NC2=O)c2cccc(C#CCO[C@H]3CC[C@H](CN4CCC5(CC4)Cc4cc(NC(=O)c6cnn7cccnc67)c(N6CCC(C(C)(C)O)CC6)cc4O5)CC3)c21 (stereo partly shown)
2

***
Please report the measured Tmax for Cn1c(=O)n(C2CCC(=O)NC2=O)c2cccc(N3CCN(CCN4CCC5(CC4)Cc4cc(NC(=O)c6cnn7cccnc67)c(N6CCC(CO)CC6)cc4O5)CC3)c21 (stereo not shown)
2

====

test: Pharmacokinetic study in mice; format: in vivo; conditions: mouse, po; male mice, p.o. (10 mg/kg), plasma
Consider the following molecules; for each one, report its Tmax.
Give bare numbers, in h.

Find the measured Tmax of Cc1cnc2c(C(=O)Nc3cc4c(cc3N3CCC(CO)CC3)OC3(CCN(C[C@H]5CC[C@H](OCC#Cc6cccc7c6n(C)c(=O)n7C6CCC(=O)NC6=O)CC5)CC3)C4)cnn2c1 (some centres unmarked) and report it.
2

In one line, give reported Tmax of the entry Cn1c(=O)n(C2CCC(=O)NC2=O)c2cccc(C#CCO[C@H]3CC[C@H](CN4CCC5(CC4)Cc4cc(NC(=O)c6cnn7cccnc67)c(N6CCC(CO)CC6)cc4O5)CC3)c21 (relative stereo) .
2

For each of the molecules below, note its Tmax.
1. Cn1c(=O)n(C2CCC(=O)NC2=O)c2cccc(C#CCO[C@H]3CC[C@H](CN4CCC5(CC4)Cc4cc(NC(=O)c6cnn7cc(Cl)cnc67)c(N6CCC(CO)CC6)cc4O5)CC3)c21 (some centres unmarked)
2. Cn1c(=O)n(C2CCC(=O)NC2=O)c2cccc(C#CCO[C@H]3CC[C@H](CN4CCC5(CC4)Cc4cc(NC(=O)c6cnn7cccnc67)c(N6CCC(O)CC6)cc4O5)CC3)c21 (some centres unmarked)
3. Cn1c(=O)n(C2CCC(=O)NC2=O)c2cccc(N3CCC(CN4CCC5(CC4)Cc4cc(NC(=O)c6cnn7cccnc67)c(N6CCC(CO)CC6)cc4O5)CC3)c21 (centres unmarked)

1: 4; 2: 4; 3: 1

====

biological target: UniProt:Q9NWZ3; test: IRAK4 Degradation Assay in THP-1 Cells (Western Blot); format: cell-based; design: endogenous in cells; host or cells: THP-1 cells; settings: THP-1 cells, 24 hours, 0.0128 to 1000 nM, IRAK4 protein level by Western Blot; read-out: DC50
Readout: DC50 (nM)
Give bare numbers, in nM.

# example entries with known answers
Name the recorded DC50 of the compound listed here: Cn1nc(N2CCC(=O)NC2=O)c2cc(F)c(N3CCC(O)(CC(=O)N4CCC5(CC4)Cc4cc(NC(=O)c6cnn7cccnc67)c(N6CCC(CO)CC6)cc4O5)CC3)cc21
1.28

Determine from records and report DC50 for Cn1c(=O)n(C2CCC(=O)NC2=O)c2cccc(C3CC(CN4CCC5(CC4)Cc4cc(NC(=O)c6cnn7cccnc67)c(N6CCC(CO)CC6)cc4O5)C3)c21 (stereo not shown)
0.64

Please look at this compound and report its DC50: Cn1c(=O)n(C2CCC(=O)NC2=O)c2cccc(C#CCO[C@H]3CC[C@H](CN4CCC5(CC4)Cc4cc(NC(=O)c6cnn7cccnc67)c(N6CCC(O)CC6)cc4O5)CC3)c21 (stereo partly shown)
1.37

In the following, a different compound is considered.
Assign DC50 to the following record: Cn1c(=O)n(C2CCC(=O)NC2=O)c2cccc(C#CCO[C@H]3CC[C@H](CN4CCC5(CC4)Cc4cc(NC(=O)c6cnn7cc(Cl)cnc67)c(N6CCC(CO)CC6)cc4O5)CC3)c21 (stereo partly shown)
3.32

====

Target: IRAK4 protein (Homo sapiens)
Test: IRAK4 Degradation Assay in THP-1 Cells (Western Blot)
Type: cell-based
Set-up: endogenous in cells; host or cells: THP-1 cells
Details: THP-1 cells, 24 hours, 0.0128 to 1000 nM, IRAK4 protein level by Western Blot; read-out: Dmax%
Protocol: In a 6-well cell culture plate, an appropriate number of THP-1 cells were seeded. The plate was placed in a 5% CO2 incubator at 37°C for overnight culture. Then, the test compound's dimethyl sulfoxide solution was added, with the final concentration ranging from 0.0128 to 1000 nM. After continuous culture for 24 hours, the culture medium was removed, and the cells were collected in a 1.5 mL centrifuge tube. […] The supernatant was taken, and the level of IRAK4 protein was detected by Western Blot.
Hi there, I'd appreciate the recorded Dmax for every entry that follows.
Answers are plain numbers, in %.

Identify Dmax associated with the compound Cn1c(=O)n(C2CCC(=O)NC2=O)c2cccc(CN3CCC(CCN4CCC5(CC4)Oc4cc(NC(=O)c6cnn7cccnc67)c(N6CCC(CO)CC6)cc4O5)CC3)c21 (stereo not shown)
86

Given the compound Cn1c(=O)n(C2CCC(=O)NC2=O)c2cccc(C#CCO[C@H]3CC[C@H](CN4CCC5(CC4)Cc4cc(NC(=O)c6cnn7cccnc67)c(N6CCC(CO)CC6)cc4C5)CC3)c21 (stereo partly shown) , write its reported Dmax.
77.5

Supply measured Dmax of Cn1c(=O)n(C2CCC(=O)NC2=O)c2cccc(C#CCOC3CCN(CCN4CCC5(CC4)Cc4cc(NC(=O)c6coc7cccnc67)c(N6CCC(CO)CC6)cc4O5)CC3)c21 (stereo not shown) in your reply.
91.6

Now examine the next entry.
Tell us which Dmax value is on record for Cc1cc(-c2nc(C(=O)Nc3cc4c(cc3N3CCC(CO)CC3)OC3(CCN(C[C@H]5CC[C@H](OCC#Cc6cccc7c6n(C)c(=O)n7C6CCC(=O)NC6=O)CC5)CC3)C4)co2)ccn1 (stereo partly shown)
84.6

====

Biological target: IRAK4 protein (Homo sapiens, UniProt Q9NWZ3)
Sequence (Q9NWZ3 1-460): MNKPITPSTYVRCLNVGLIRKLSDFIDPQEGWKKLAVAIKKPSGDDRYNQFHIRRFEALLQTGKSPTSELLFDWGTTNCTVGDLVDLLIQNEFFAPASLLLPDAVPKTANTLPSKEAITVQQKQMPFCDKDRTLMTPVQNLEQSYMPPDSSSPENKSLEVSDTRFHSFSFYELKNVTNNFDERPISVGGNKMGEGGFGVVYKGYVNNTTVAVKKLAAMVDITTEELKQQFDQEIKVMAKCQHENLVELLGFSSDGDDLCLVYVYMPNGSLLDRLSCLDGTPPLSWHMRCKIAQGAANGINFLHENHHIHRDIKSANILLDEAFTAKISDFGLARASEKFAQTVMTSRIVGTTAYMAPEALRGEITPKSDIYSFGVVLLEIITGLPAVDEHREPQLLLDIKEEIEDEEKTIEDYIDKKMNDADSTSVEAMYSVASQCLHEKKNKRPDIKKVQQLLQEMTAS
Test: IRAK4 Degradation Assay in THP-1 Cells (Western Blot)
Format: cell-based
Set-up: endogenous in cells; host or cells: THP-1 cells
Conditions: THP-1 cells, 24 hours, 0.0128 to 1000 nM, IRAK4 protein level by Western Blot; read-out: DC50
Could you please report measured DC50 for the items listed next?
Give bare numbers, in nM.

Determine from records and report DC50 for O=C1CCC(N2Cc3c(CN4CCC(CCN5CCC6(CC5)Cc5cc(NC(=O)c7cnn8cccnc78)c(N7CCC(CO)CC7)cc5O6)CC4)cccc3C2=O)C(=O)N1 (stereo not shown)
1.3

// batch mode: one DC50 value per listed entry
1. Cc1cnc2c(C(=O)Nc3cc4c(cc3N3CCC(CO)CC3)OC3(CCN(C[C@H]5CC[C@H](OCC#Cc6cccc7c6n(C)c(=O)n7C6CCC(=O)NC6=O)CC5)CC3)C4)cnn2c1 (stereo partly shown)
2. Cn1c(=O)n(C2CCC(=O)NC2=O)c2cccc(C#CCO[C@H]3CC[C@H](CN4CCC5(CC4)Cc4cc(NC(=O)c6cnn7cccnc67)c(N6CCC(C(C)(C)O)CC6)cc4O5)CC3)c21 (stereo partly shown)
3. Cn1c(=O)n(C2CCC(=O)NC2=O)c2cccc(C#CCO[C@H]3CC[C@@H](CN4CCC5(CC4)Cc4cc(NC(=O)c6cnn7cccnc67)c(N6CCC(CO)CC6)cc4O5)CC3)c21 (relative stereo)

2.27
3.86
3.44

====

biological target: IRAK4 protein (Homo sapiens, UniProt Q9NWZ3); experiment: IRAK4 Degradation Assay in THP-1 Cells (Western Blot); format: cell-based; set-up: endogenous in cells; host or cells: THP-1 cells; settings: THP-1 cells, 24 hours, 0.0128 to 1000 nM, IRAK4 protein level by Western Blot; read-out: DC50
For each of the compounds below, state its DC50.
One number for each entry, in nM.

Output DC50 of Cn1c(=O)n(C2CCC(=O)NC2=O)c2cccc(C#CCOC3CCN(CCN4CCC5(CC4)Cc4cc(NC(=O)c6cnn7cccnc67)c(N6CCC(CO)CC6)cc4O5)CC3)c21 (stereo not shown)
2.18

# batch: return DC50 for each of the 2 compounds below
1. Cn1c(=O)n(C2CCC(=O)NC2=O)c2cccc(C#CCO[C@H]3CC[C@H](CN4CCC5(Cc6cc(NC(=O)c7cnn8cccnc78)c(N7CCC(CO)CC7)cc6O5)C4)CC3)c21 (stereo partly shown)
2. Cn1c(=O)n(C2CCC(=O)NC2=O)c2cccc(C#CCO[C@H]3CC[C@H](CN4CCC5(CC4)Cc4cc(NC(=O)c6cnc7cccnn67)c(N6CCC(CO)CC6)cc4O5)CC3)c21 (stereo partly shown)

2
1.52

State its DC50: Cn1c(=O)n(C2CCC(=O)NC2=O)c2cccc(C#CCO[C@H]3CC[C@H](CN4CCC5(CC4)Cc4cc(NC(=O)c6cnn7cc(Cl)cnc67)c(N6CCC(O)CC6)cc4O5)CC3)c21 (stereo partly shown)
2.98
